The reported measurements were obtained from the supplement of paper PMC11061612.

For each entry below, report its Bliss excess value.
# Test system: COR-L311 (Small Cell Lung Carcinoma);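 further: after 72 h of two-drug dosing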
# assayInfo: Bliss excess, mean over the matrix (fraction); higher = more synergy
Answers are plain numbers.

For orientation, consider the following solved cases.
# compound, Bliss excess
records = [
    ("Cc1c2c(nn1C)CSCc1cc(n(C)n1)CSc1cc(c3ccccc3c1)OCCCc1c(C(=O)O)n(C)c3c-2c(Cl)ccc13 [AZD5991] + Cc1cc2ncnn2cc1Nc1ncc2c(n1)n(C1CCOCC1)c(=O)n2C [AZD7648] (first compound max 1 µM, 7x7, partner max 10 µM)", 0.0101),
    ("COc1cc2ncnc(Nc3ccc(F)c(Cl)c3)c2cc1OCCCN1CCOCC1 [Gefitinib] + CC(C)n1c(=O)n(C)c2cnc3cc(F)c(-c4ccc(OCCCN5CCCCC5)nc4)cc3c21 [AZD1390] (first compound max 10 µM, 7x7, partner max 0.3 µM)", -0.0545),
    ("COc1nnc2ccc(N3CCC(c4ccc(OCCN5CCN(C)C(=O)[C@H]5C)cc4)CC3)nn12 [AZD5153] + C=CCn1c(=O)c2cnc(Nc3ccc(N4CCN(C)CC4)cc3)nc2n1-c1cccc(C(C)(C)O)n1 [AZD1775] (first compound max 1 µM, partner max 1 µM)", -0.06),
    ("Cc1cc2ncnn2cc1Nc1ncc2c(n1)n(C1CCOCC1)c(=O)n2C [AZD7648] + C=CCn1c(=O)c2cnc(Nc3ccc(N4CCN(C)CC4)cc3)nc2n1-c1cccc(C(C)(C)O)n1 [AZD1775] (first compound max 10 µM, partner max 1 µM)", -0.119),
    ("CN(C)CCCOc1ccc(-c2ccc3ncc4c(c3c2)n(C2CCOCC2)c(=O)n4C)cn1 [AZD0156] + C=CCn1c(=O)c2cnc(Nc3ccc(N4CCN(C)CC4)cc3)nc2n1-c1cccc(C(C)(C)O)n1 [AZD1775] (first compound max 1 µM, partner max 1 µM)", -0.115),
]

Need Bliss excess for each of these compounds.
1. Cc1cc2ncnn2cc1Nc1ncc2c(n1)n(C1CCOCC1)c(=O)n2C [AZD7648] + CN(C)CCCOc1ccc(-c2ccc3ncc4c(c3c2)n(C2CCOCC2)c(=O)n4C)cn1 [AZD0156] (first compound max 10 µM, 7x7, partner max 1 µM)
2. COc1nnc2ccc(N3CCC(c4ccc(OCCN5CCN(C)C(=O)[C@H]5C)cc4)CC3)nn12 [AZD5153] + CCN(CCO)CCCOc1ccc2c(Nc3cc(CC(=O)Nc4cccc(F)c4)[nH]n3)ncnc2c1 [AZD2811] (first compound max 1 µM, 7x7, partner max 1 µM)

Result:
[-0.054, -0.0357]
